- System tested: BaF3 KIF5B-RET_G810R (Homo sapiens, UniProt P07949, G810R, cells depend on it)
- Construct: fused on or other part: P33176 (Kinesin-1 heavy chain)
- Sequence (P07949 whole entry G810R, the tested form may be a part): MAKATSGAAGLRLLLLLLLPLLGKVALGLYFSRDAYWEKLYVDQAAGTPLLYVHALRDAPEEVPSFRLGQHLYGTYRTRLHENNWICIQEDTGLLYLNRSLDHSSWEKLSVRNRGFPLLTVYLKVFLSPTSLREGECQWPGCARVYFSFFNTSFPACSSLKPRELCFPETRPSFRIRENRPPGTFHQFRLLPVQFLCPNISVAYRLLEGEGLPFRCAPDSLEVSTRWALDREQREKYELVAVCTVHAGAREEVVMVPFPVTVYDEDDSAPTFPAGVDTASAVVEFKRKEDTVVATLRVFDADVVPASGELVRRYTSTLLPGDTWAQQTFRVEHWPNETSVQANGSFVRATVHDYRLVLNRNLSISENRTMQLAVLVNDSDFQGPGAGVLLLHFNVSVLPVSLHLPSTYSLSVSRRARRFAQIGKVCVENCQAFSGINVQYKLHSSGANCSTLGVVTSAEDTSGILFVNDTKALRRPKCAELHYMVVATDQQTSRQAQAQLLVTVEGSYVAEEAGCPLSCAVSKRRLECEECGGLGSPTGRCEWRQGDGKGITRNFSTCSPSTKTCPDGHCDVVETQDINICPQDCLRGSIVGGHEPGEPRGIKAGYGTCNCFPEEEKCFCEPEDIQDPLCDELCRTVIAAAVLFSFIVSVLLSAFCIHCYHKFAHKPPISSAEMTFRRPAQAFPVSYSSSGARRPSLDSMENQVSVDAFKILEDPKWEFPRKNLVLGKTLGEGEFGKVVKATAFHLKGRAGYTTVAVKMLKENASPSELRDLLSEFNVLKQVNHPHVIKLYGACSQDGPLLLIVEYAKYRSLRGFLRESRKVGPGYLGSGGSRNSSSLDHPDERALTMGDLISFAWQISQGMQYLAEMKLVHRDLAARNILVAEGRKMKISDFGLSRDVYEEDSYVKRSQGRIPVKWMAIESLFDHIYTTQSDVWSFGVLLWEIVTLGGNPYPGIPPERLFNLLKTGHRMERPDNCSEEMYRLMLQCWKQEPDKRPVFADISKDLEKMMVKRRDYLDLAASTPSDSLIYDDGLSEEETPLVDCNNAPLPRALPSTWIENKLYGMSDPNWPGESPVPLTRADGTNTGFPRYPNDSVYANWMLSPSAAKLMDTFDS
- Protocol summary: Cell proliferation assay (CellTiter-Glo, 72 hours)
- Type: cell-based
- Experimental setup: anti-cell proliferation, read-out: BaF3 KIF5B-RET_G810R IC50
- Procedure: [The source words this procedure for another variant and reports this variant under the same test.] The KIF5B-RET gene was synthesized at GenScript and cloned into pCDH-CMV-MCS-EF1-Puro plasmid (System Biosciences, Inc). KIF5B-RET point mutation V804M was generated at GenScript by PCR and confirmed by sequencing. […] Two thousand cells per well were seeded in 384 well white plate for 24 hrs, and then treated with compounds for 72 hours (37° C., 5% CO2). Cell proliferation was measured using CellTiter-Glo luciferase-based ATP detection assay (Promega) following the manufactures's protocol. […]
Measure: GI50 (nM)
Kindly answer with a numeric value in nM, unit omitted.

Answer with the recorded GI50 for the molecule listed here: "O=C1N[C@H](C(F)(F)F)COc2ncc(F)cc2CN2c3nc4c1cnn4cc3O[C@H]1CCC[C@H]12"
90.9

Output measured GI50 for this item: CC1CNC(=O)c2cnn3cc4c(nc23)N(Cc2cc(F)cnc2OC1)[C@@H]1CCC[C@@H]1O4 (stereo partly shown)
134

For the molecule "O=C1NCC(F)(F)COc2ncc(F)cc2CN2c3nc4c1cnn4cc3O[C@H]1CCC[C@H]12" , give its reported GI50.
1.8
